molecular target: T1, apical domain of CD71 (Screen 3: 'cynomolgus apical domain of human CD71') (cynomolgus (as 'cynomolgus apical …)); assay: primary ELISA screen, RLU on apical domain over RLU on HSA
T1 construct: domain: apical domain; Species is told ambiguously
metric: Apical domain:HSA (ratio)
Number in ratio, nothing else.

Use these answered entries as a reference point.
binder	value.observed
CD71-binding FN3 domain of SEQ ID NO: 343 (designed binder, not shown: C-terminal poly-histidine tag added to each FN3 domain) MSLPAPKNLVVSRVTEDSARLSWTAPDAAFDSFFIGYLEPQPPGEAIALWVPGSERSYDLTGLKPGTEYNVTIQGVKGGFPSEPLVATFTT	178
CD71-binding FN3 domain of SEQ ID NO: 341 (designed binder, not shown: C-terminal poly-histidine tag added to each FN3 domain) MSLPAPKNLVVSRVTEDSARLSWTAPDAAFDSFFIGYLEPQPPGEAIELYVPGSERSYDLTGLKPGTEYNVTIQGVKGGFPSLPLVAIFTT	92
CD71-binding FN3 domain of SEQ ID NO: 336 (designed binder, not shown: C-terminal poly-histidine tag added to each FN3 domain) MSLPAPKNLVVSRVTEDSARLSWTAPDAAFDSFNIMYHEHYDNGEAIVLTVPGSERSYDLTGLKPGTEYSVVINGVKGGPHSAPLSAIFTT	256

Now consider the entry below.
GET /values?readout=Apical domain:HSA&item= CD71-binding FN3 domain of SEQ ID NO: 340 (designed binder, not shown: C-terminal poly-histidine tag added to each FN3 domain) MSLPAPKNLVVSRVTEDSSRLSWTAPDAAFDSFEIGYFENLYLGEAIVLTVPGSERSYDLTGLKPGTEYWVQIGGVKGGNWSAPLSAIFTT
180
